These data points were gathered from ChEMBL document CHEMBL1157539.

test system: Plasmodium falciparum; experiment: GSK_TCMDC: Inhibition of Plasmodium falciparum 3D7 in whole erythrocytes, using parasite LDH activity as an index of growth.; assay type: functional, organism-based; details: Plasmodium falciparum, 3D7
Param label: returns yes when XC50 < 700 nM, returns no otherwise, including exact equality.

Please review the entries below; each comes with its answer.
Task: Hi there! Is XC50 for `COc1cccc(CN2CCCN(Cc3cccc(NC(=O)c4cc5ccccc5s4)c3)CC2)c1` below 700 nM, do you know?
Result: no

Task: Hi there! Is XC50 for `COc1c(CN2CCCC2)cccc1-c1cc2c(-c3ccc(C(=O)O)c(C(C)C)c3)ccnc2[nH]1` below 700 nM, do you know?
Result: yes

Task: Hi there! Is XC50 for `CC(C)(C)c1ccccc1OCCCON1C(=N)N=C(N)NC1(C)C` below 700 nM, do you know?
Result: yes

Task: Hi there! Is XC50 for `O=C(NCc1ccc(F)cc1)c1ccc(N2CCN(c3ccncc3)CC2)cn1` below 700 nM, do you know?
Result: no

Task: Hi there! Is XC50 for Oc1cccc(-c2nc3cc(C4=NC5CCCCC5N4)ccc3[nH]2)c1 (centres undefined) below 700 nM, do you know?
Result: yes

Task: Hi there! Is XC50 for `c1ccc(C(OCCC2CCN(Cc3cccnc3)CC2)c2ccccc2)cc1` below 700 nM, do you know?
Result: no

Task: Hi there! Is XC50 for `Cc1cc(O)nc(NC#N)n1` below 700 nM, do you know?
Result: yes

Task: Hi there! Is XC50 for `CC(C)Cc1cnc2nc(N)nc(N)c2c1` below 700 nM, do you know?
Result: yes

---
Task: Hi there! Is XC50 for CC1CN(Cc2ccccc2)CCN1c1ccc(NC(=O)c2ccc(F)cc2)cc1 (centres undefined) below 700 nM, do you know?
Result: no

Task: Hi there! Is XC50 for `Cc1cc(N)nc2ccc(-c3ccc(CN)cc3)cc12` below 700 nM, do you know?
Result: yes

Task: Hi there! Is XC50 for `COc1cccc(C(=O)Nc2nonc2-c2ccc(OC)c(OC)c2)c1` below 700 nM, do you know?
Result: no
